- MEASURED TARGET: PDE3A recombinant enzyme (Homo sapiens, UniProt Q14432)
- Sequence (Q14432 whole entry): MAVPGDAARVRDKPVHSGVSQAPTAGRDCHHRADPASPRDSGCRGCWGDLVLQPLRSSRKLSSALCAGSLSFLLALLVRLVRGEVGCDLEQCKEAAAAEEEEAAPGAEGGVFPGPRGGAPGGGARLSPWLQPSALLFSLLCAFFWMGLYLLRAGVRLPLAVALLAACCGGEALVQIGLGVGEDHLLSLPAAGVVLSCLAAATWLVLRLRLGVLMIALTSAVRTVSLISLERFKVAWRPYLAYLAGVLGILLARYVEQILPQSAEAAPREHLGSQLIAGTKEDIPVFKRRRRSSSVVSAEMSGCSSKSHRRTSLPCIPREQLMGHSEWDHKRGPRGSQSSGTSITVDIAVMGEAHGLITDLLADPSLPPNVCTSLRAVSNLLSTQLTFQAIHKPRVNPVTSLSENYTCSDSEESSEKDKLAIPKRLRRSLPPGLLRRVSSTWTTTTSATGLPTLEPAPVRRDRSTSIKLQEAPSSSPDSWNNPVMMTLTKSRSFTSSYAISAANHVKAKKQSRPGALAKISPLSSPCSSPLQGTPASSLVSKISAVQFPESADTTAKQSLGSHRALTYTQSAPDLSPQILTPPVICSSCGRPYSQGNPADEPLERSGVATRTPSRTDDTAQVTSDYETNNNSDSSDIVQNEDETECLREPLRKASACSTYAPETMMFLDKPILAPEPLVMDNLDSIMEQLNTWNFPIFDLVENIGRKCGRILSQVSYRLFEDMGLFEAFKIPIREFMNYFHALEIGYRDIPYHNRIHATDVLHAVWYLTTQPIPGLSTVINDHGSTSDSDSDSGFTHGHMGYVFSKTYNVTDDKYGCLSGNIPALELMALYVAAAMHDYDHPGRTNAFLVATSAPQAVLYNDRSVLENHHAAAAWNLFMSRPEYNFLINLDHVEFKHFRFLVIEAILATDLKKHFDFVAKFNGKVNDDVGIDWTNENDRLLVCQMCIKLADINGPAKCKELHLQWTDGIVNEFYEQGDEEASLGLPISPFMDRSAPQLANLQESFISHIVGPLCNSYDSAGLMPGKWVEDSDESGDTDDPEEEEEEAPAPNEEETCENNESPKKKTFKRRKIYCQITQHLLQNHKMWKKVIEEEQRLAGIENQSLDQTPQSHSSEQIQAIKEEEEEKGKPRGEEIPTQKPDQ
- ASSAY: In vitro assay of inhibitory activity against PDE 3A enzyme (FP, FAM-cAMP)
- TEST CONTEXT: in vitro screening assay
OBSERVABLE: IC50 (nM)

CHEMICAL SMILES	IC50 (nM)
CCOc1cc2c(cc1OC)-c1c/c(=N\c3c(C)cc(OC)cc3C)n(CCNC(=O)c3c(O)nnn3C)c(=O)n1CC2	0.5
COc1cc2c(cc1OC)-c1c/c(=N\c3c(C)cc(C4CC4)cc3C)n(CCNC(=O)c3c(O)nnn3C)c(=O)n1CC2	0.53
CCOc1cc2c(cc1OC)-c1c/c(=N\c3c(C)cc(C4CC4)cc3C)n(CCNC(=O)c3c(O)nnn3C)c(=O)n1CC2	0.59
